Test system: MS2 coat protein
Test: apparent KD of MS2 coat protein; designed switch direction (-1 OFF switch, 1 ON switch): -1; higher = weaker reporter binding
Settings: input ligand: FMN 200 uM
valueType: apparent KD of MS2 coat protein (nM)
All answers are understood in nM, so give the number only.

INSERT INTO assay_data (biopolymersequence, resultvalue) VALUES
  ('GCCCGGGCAGGAUAUACGUGGCCCGGGUAACCGGGCCUCAGACAUGAGGAUCACCCAUGUAGAAGGGCCCGGGC [-44, -43.8 kcal, A 22%] (Eterna round: R97, puzzle: Exclusion 2)', 18.1),
  ('AGCGUGGAGACAGGAUAUGAGAAUAGAUAGAACUCAGAAGGGUCACAUGAGGAUCACCCAUGUAAAGUCUUGAGGAUGAGUGGU [Prohibition 5 - Jieux - Exclusion NG 1] (Eterna round: R96, puzzle: Exclusion NG 1)', 119),
  ('GCUCGAAGGAGUGGGAGCAACAUGAGGAUCACCCAUGUGCGGCUAUUUCAUGCUCGUCUUAAAGCUUUGCCCUAGCC [Eternabot (Original) Solution 40] (Eterna round: R97, puzzle: Sensor, turn-off variant 1)', 17.2);

Turning now to a further sequence:
Query :: Find the recorded apparent KD of MS2 coat protein belonging to GAAUAGCGAGGAUAUGCAAUGAAGGUAGUACGAUAUGGCUGACAUGAGGAUCACCCAUGUAGAAGGCGCUGAUC [EX2 #11] (Eterna round: R97, puzzle: Exclusion 2) and report it.
Result :: 116

Values from the supplement of paper PMC9170038
